- Experimental system: Nicotinamide N-methyltransferase (Homo sapiens, UniProt P40261)
- Sequence (P40261 whole entry): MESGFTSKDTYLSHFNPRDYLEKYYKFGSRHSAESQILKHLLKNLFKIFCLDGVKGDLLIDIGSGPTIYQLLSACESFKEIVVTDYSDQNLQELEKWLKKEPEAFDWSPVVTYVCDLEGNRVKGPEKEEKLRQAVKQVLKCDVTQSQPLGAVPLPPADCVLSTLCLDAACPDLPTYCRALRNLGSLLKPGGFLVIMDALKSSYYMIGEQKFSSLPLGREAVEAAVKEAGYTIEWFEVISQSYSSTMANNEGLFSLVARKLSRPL
- Experiment notes: Inhibition of N-terminal His6-tagged wild type human NNMT expressed in Escherichia coli NiCo21(DE3) assessed as reduction in 1-methylquinolinium level using quinoline as substrate in presence of SAM and measured every 27 seconds for 5.5 mins by fluorescence-based assay
- Applied conditions: read-out: pKi (converted)
Readout: Ki (nM)

Completed entries (count: 2):
INSERT INTO assay_data (given_smiles, readout, endpoint_result) VALUES
  ('NC(=O)c1cccc(CC[C@H](CC[C@H](N)C(=O)O)C[C@H]2O[C@@H](n3cnc4c(N)ncnc43)[C@H](O)[C@@H]2O)c1', 'Ki', 107),
  ('NC(=O)c1cccc(CCN(CCC[C@H](N)C(=O)O)C[C@H]2O[C@@H](n3cnc4c(N)ncnc43)[C@H](O)[C@@H]2O)c1', 'Ki', 89.1);

a. Nc1ncnc2c1ncn2[C@@H]1O[C@H](CCCC[C@H](N)C(=O)O)[C@@H](O)[C@H]1O
b. NC(=O)c1cccc(C#C[C@@H](CC[C@H](N)C(=O)O)C[C@H]2O[C@@H](n3cnc4c(N)ncnc43)[C@H](O)[C@@H]2O)n1
Could you please tell me which of these two has the higher Ki: a or b ? Please identify the chosen entry by its label.
a
(a: 21400 nM, b: 6.76 nM)

A. Nc1ncnc2c1ncn2[C@@H]1O[C@H](C[C@@H](C#Cc2ccccc2)CC[C@H](N)C(=O)O)[C@@H](O)[C@H]1O
B. NC(=O)c1ccc(C#C[C@@H](CC[C@H](N)C(=O)O)C[C@H]2O[C@@H](n3cnc4c(N)ncnc43)[C@H](O)[C@@H]2O)cc1
C. NC(=O)c1cc(C#C[C@@H](CC[C@H](N)C(=O)O)C[C@H]2O[C@@H](n3cnc4c(N)ncnc43)[C@H](O)[C@@H]2O)ccc1C(F)(F)F
Order the records by Ki, with each subsequent value no larger than the one before. Give your ranking as a list of the labels in the requested order.
A, B, C

====

- Experimental system: Histone-lysine N-methyltransferase SETDB1 (Homo sapiens, UniProt Q15047)
Readout: IC50

# lookup: NC(=O)c1cccc(C#C[C@@H](CC[C@H](N)C(=O)O)C[C@H]2O[C@@H](n3cnc4c(N)ncnc43)[C@H](O)[C@@H]2O)c1 on Histone-lysine N-methyltransferase SETDB1 (Homo sapiens, UniProt Q15047), IC50 = > 10 µM

====

- Experimental system: Nicotinamide N-methyltransferase (Homo sapiens, UniProt P40261)
- Sequence (P40261 whole entry): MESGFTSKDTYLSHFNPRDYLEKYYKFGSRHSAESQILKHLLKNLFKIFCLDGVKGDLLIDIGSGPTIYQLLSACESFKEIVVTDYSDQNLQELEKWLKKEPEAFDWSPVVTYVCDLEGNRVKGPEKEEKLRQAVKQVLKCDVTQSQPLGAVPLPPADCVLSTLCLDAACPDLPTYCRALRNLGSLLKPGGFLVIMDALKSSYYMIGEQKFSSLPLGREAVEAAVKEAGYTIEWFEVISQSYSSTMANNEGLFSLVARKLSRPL
- Experiment notes: Inhibition of N-terminal His6-tagged wild type human NNMT expressed in Escherichia coli NiCo21(DE3) assessed as reduction in 1-methylquinolinium level using quinoline as substrate in presence of SAM and measured every 27 seconds for 5.5 mins by fluorescence-based assay
- Applied conditions: read-out: pKi (converted)
Readout: Ki (µM)

As a guide, the following entries are already answered.
INSERT INTO measurements (given_smiles, endpoint_unit, endpoint_result) VALUES
  ('NC(=O)c1cc(C#C[C@@H](CC[C@H](N)C(=O)O)C[C@H]2O[C@@H](n3cnc4c(N)ncnc43)[C@H](O)[C@@H]2O)c2c(c1)OCO2', 'µM', 0.0324),
  ('COC(=O)[C@@H](N)CC[C@H](C#Cc1cccc(C(N)=O)c1)C[C@H]1O[C@@H](n2cnc3c(N)ncnc32)[C@H](O)[C@@H]1O', 'µM', 0.437),
  ('NC(=O)c1cccc(C#CCC[C@H]2O[C@@H](n3cnc4c(N)ncnc43)[C@H](O)[C@@H]2O)c1', 'µM', 0.263);

a. Nc1ncnc2c1ncn2[C@@H]1O[C@H](C[C@@H](C#Cc2ccc3c(c2)C(=O)NC3)CC[C@H](N)C(=O)O)[C@@H](O)[C@H]1O
b. Nc1cccc2c(C#C[C@@H](CC[C@H](N)C(=O)O)C[C@H]3O[C@@H](n4cnc5c(N)ncnc54)[C@H](O)[C@@H]3O)cccc12
c. NC(=O)c1cccc(C#C[C@@H](CCCC(=O)O)C[C@H]2O[C@@H](n3cnc4c(N)ncnc43)[C@H](O)[C@@H]2O)c1
d. NC(=O)NCC[C@H](C#Cc1cccc(C(N)=O)c1)C[C@H]1O[C@@H](n2cnc3c(N)ncnc32)[C@H](O)[C@@H]1O
I would appreciate it if you could sort these 4 molecules by Ki, starting from the smallest number. Provide the ranking by listing each label in its place in the requested order.
d, a, b, c
(d: 0.0759 µM, a: 1.86 µM, b: 3.72 µM, c: 22.4 µM)

a. NC(=O)c1ccccc1C#C[C@@H](CC[C@H](N)C(=O)O)C[C@H]1O[C@@H](n2cnc3c(N)ncnc32)[C@H](O)[C@@H]1O
b. C#C[C@@H](CC[C@H](N)C(=O)O)C[C@H]1O[C@@H](n2cnc3c(N)ncnc32)[C@H](O)[C@@H]1O
c. NC(=O)CCC[C@H](C#Cc1cccc(C(N)=O)c1)C[C@H]1O[C@@H](n2cnc3c(N)ncnc32)[C@H](O)[C@@H]1O
Given 3 molecules, produce a descending ranking by Ki. I would appreciate it if you listed the labels in the requested order.
b, a, c
(b: 47.9 µM, a: 19.5 µM, c: 1.05 µM)

====

- Experimental system: INMT (indolethylamine N-methyltransferase) (Homo sapiens)
- Sequence (O95050 whole entry): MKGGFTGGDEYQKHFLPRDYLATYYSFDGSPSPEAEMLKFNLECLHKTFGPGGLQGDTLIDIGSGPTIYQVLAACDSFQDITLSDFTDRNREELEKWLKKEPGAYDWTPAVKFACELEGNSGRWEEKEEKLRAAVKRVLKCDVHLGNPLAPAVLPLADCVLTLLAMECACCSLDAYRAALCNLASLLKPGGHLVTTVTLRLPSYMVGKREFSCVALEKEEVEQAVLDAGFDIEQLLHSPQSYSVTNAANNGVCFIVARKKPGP
- Experiment notes: Inhibition of wild type human INMT expressed in Escherichia coli at 1 uM using tryptamine as substrate in presence of SAM incubated for 30 mins by MTase-Glo assay relative to control
- Applied conditions: probe tryptamine
Readout: inhibition at 0.5 h, 1 µM (%)
Hi! Could you send only the number? It should be in %, unit omitted.

Value of inhibition at 0.5 h, 1 µM reported for the compound NC(=O)c1cccc(C#C[C@@H](CC[C@H](N)C(=O)O)C[C@H]2O[C@@H](n3cnc4c(N)ncnc43)[C@H](O)[C@@H]2O)c1 is 14

====

- Experimental system: Indolethylamine N-methyltransferase (Homo sapiens, UniProt O95050)
Readout: pIC50
Formally, pIC50 is defined as -log10 of the concentration c, with c in mol/L.

Looking up NC(=O)c1cccc(C#C[C@@H](CC[C@H](N)C(=O)O)C[C@H]2O[C@@H](n3cnc4c(N)ncnc43)[C@H](O)[C@@H]2O)c1 , I found its pIC50 recorded as 5.47

====

- Experiment notes: Permeability across apical to basolateral side in human Caco2 cells after 60 mins by HPLC-MS/MS analysis
- Assay type: ADME, cell-based
- Applied conditions: caco-2, 1 h
Readout: permeability

INSERT INTO assay_data (given_smiles, endpoint_result) VALUES
  ('NC(=O)NCC[C@H](C#Cc1cccc(C(N)=O)c1)C[C@H]1O[C@@H](n2cnc3c(N)ncnc32)[C@H](O)[C@@H]1O', 'Impermeable'),
  ('NC(=O)c1cccc(C#C[C@@H](CC[C@H](N)C(N)=O)C[C@H]2O[C@@H](n3cnc4c(N)ncnc43)[C@H](O)[C@@H]2O)c1', 'Impermeable'),
  ('NCCC[C@H](C#Cc1cccc(C(N)=O)c1)C[C@H]1O[C@@H](n2cnc3c(N)ncnc32)[C@H](O)[C@@H]1O', '1.3 ×10⁻⁶ cm/s'),
  ('COC(=O)[C@@H](N)CC[C@H](C#Cc1cccc(C(N)=O)c1)C[C@H]1O[C@@H](n2cnc3c(N)ncnc32)[C@H](O)[C@@H]1O', 'Impermeable');

Now take the following molecule into account.
Consider NC(=O)c1cccc(C#C[C@@H](CC[C@H](N)C(=O)O)C[C@H]2O[C@@H](n3cnc4c(N)ncnc43)[C@H](O)[C@@H]2O)c1 . Its measured permeability is Impermeable

====

- Experimental system: UniProt P40261
- Experiment notes: Inhibition of N-terminal His6-tagged wild type human NNMT expressed in Escherichia coli NiCo21(DE3) assessed as reduction in 1-methylquinolinium level using quinoline as substrate in presence of SAM and measured every 27 seconds for 5.5 mins by fluorescence-based assay
- Applied conditions: read-out: pKi (converted)
Readout: Ki (nM)

INSERT INTO assay_data (given_smiles, endpoint_result) VALUES
  ('NC(=O)c1cccc(C#C[C@@H](CCC[C@H](N)C(=O)O)C[C@H]2O[C@@H](n3cnc4c(N)ncnc43)[C@H](O)[C@@H]2O)c1', 0.24);

a. NC(=O)c1cccc(C#C[C@@H](CC[C@H](N)C(N)=O)C[C@H]2O[C@@H](n3cnc4c(N)ncnc43)[C@H](O)[C@@H]2O)c1
b. Cc1ccc(C#C[C@@H](CC[C@H](N)C(=O)O)C[C@H]2O[C@@H](n3cnc4c(N)ncnc43)[C@H](O)[C@@H]2O)cc1C(N)=O
Lower Ki: a or b ? I would appreciate it if you answered with the label of your choice.
b

A. NC(=O)c1ccnc(C#C[C@@H](CC[C@H](N)C(=O)O)C[C@H]2O[C@@H](n3cnc4c(N)ncnc43)[C@H](O)[C@@H]2O)c1
B. NC(=O)c1cc(C#C[C@@H](CC[C@H](N)C(=O)O)C[C@H]2O[C@@H](n3cnc4c(N)ncnc43)[C@H](O)[C@@H]2O)ccc1Cl
Would you let me know which has the greater Ki value, A or B ? API: response body contains the label of the selected item.
A
(A: 35.5 nM, B: 0.191 nM)
